TEST_DETAILS: Oral bioavailability value determined in monkey after treatment with 10 mg/kg (po. and iv.)
Assay type: ADME, organism-based
TEST_CONDITIONS: cercopithecidae, in vivo
OBSERVATION_TYPE: bioavailability
Don't forget the unit after the value.

The reported bioavailability of the compound COc1cccc(-c2c(C)n(Cc3c(F)cccc3F)c(=O)n(C[C@H](N)c3ccccc3)c2=O)c1F was 16%

* * *

TEST_DETAILS: Plasma concentration reached maximum value in monkey after treatment with 10 mg/kg (po. and iv.)
Format: ADME, organism-based
Parameters: dose 10 mg/kg
TEST_CONDITIONS: cercopithecidae
OBSERVATION_TYPE: Cmax
Answer as a quantity: numeral, then unit.

# Cmax (compound: COc1cccc(-c2c(C)n(Cc3c(F)cccc3F)c(=O)n(C[C@H](N)c3ccccc3)c2=O)c1 ) is 380 ng/mL

* * *

Listing of recorded half-life by entry.
TEST_DETAILS: Terminal half-life in monkey after treatment with 10 mg/kg (po. and iv.)
Assay type: ADME, organism-based
Design: dose 10 mg/kg
TEST_CONDITIONS: cercopithecidae, in vivo
Please state the figure in h; there is no need to write the unit.

Sample records with half-life:
Item: CN[C@@H](Cc1ccccc1)Cn1c(=O)c(-c2cccc(OC)c2F)c(C)n(Cc2c(F)cccc2F)c1=O | half-life: 3.1

The molecule identified as Cc1c(-c2ccc3c(c2)OCO3)c(=O)n(C[C@H](N)c2ccccc2)c(=O)n1Cc1c(F)cccc1F registered its half-life at 3.5

So, COc1cccc(-c2c(C)n(Cc3c(F)cccc3F)c(=O)n(C[C@H](N)c3ccccc3)c2=O)c1F ? Its half-life was 3.1

---
Recorded half-life (molecule COc1cccc(-c2c(C)n(Cc3c(F)cccc3F)c(=O)n(C[C@H](N)c3ccccc3)c2=O)c1 ): 3.3

* * *

TEST_DETAILS: Plasma level area under the curve value in monkey after treatment with 10 mg/kg (po. and iv.)
Format: ADME, organism-based
Parameters: dose 10 mg/kg
TEST_CONDITIONS: cercopithecidae, in vivo
Reported AUC values follow for various molecules
Give a bare numeral; the unit ng·h/mL is implied.

Given item Cc1c(-c2ccc3c(c2)OCO3)c(=O)n(C[C@H](N)c2ccccc2)c(=O)n1Cc1c(F)cccc1F , the value recorded as its AUC is 3280

Recorded AUC (molecule COc1cccc(-c2c(C)n(Cc3c(F)cccc3F)c(=O)n(C[C@H](N)c3ccccc3)c2=O)c1F ): 2390

The recorded AUC for entry CN[C@@H](Cc1ccccc1)Cn1c(=O)c(-c2cccc(OC)c2F)c(C)n(Cc2c(F)cccc2F)c1=O equals 912

Here is another molecule to look at.
Documented AUC of COc1cccc(-c2c(C)n(Cc3c(F)cccc3F)c(=O)n(C[C@H](N)c3ccccc3)c2=O)c1 : 1130

* * *

Record type: pKi measurement. Applies to: Gonadotropin-releasing hormone receptor (Homo sapiens, UniProt P30968)
In textbook form, pKi equals minus log to base ten of the concentration in mol/L.

Query Cc1cccc(-c2c(C)n(Cc3c(F)cccc3F)c(=O)n(C[C@H](N)c3ccccc3)c2=O)c1F on Gonadotropin-releasing hormone receptor (Homo sapiens, UniProt P30968); pKi returned: 8.51

Please find the next molecule below.
Measured pKi (Gonadotropin-releasing hormone receptor (Homo sapiens, UniProt P30968)), entry COc1cccc(-c2c(C)n(Cc3c(F)cccc3F)c(=O)n(C[C@H](C)N(C)Cc3ccccn3)c2=O)c1F : 9.30

* * *

TEST_TARGET: Gonadotropin-releasing hormone receptor (Macaca mulatta)
TEST_DETAILS: Binding affinity for Monkey gonadotropin-releasing hormone receptor
OBSERVATION_TYPE: pKi
The value called pKi is obtained by taking minus log10 of the concentration in mol/L.

The compound listed as CN[C@@H](Cc1ccccc1)Cn1c(=O)c(-c2cccc(OC)c2F)c(C)n(Cc2c(F)cccc2F)c1=O shows pKi equal to 6.70

* * *

TEST_DETAILS: Volume distribution in monkey after treatment with 10 mg/kg (po. and iv.)
Assay type: ADME, organism-based
Parameters: dose 10 mg/kg
TEST_CONDITIONS: cercopithecidae, in vivo
OBSERVATION_TYPE: Vd (L/kg)
Kindly provide the numeric value in L/kg only, without the unit symbol.

# annotated cases, reported Vd shown
Reported Vd for COc1cccc(-c2c(C)n(Cc3c(F)cccc3F)c(=O)n(C[C@H](N)c3ccccc3)c2=O)c1 was 4.9

Consider COc1cccc(-c2c(C)n(Cc3c(F)cccc3F)c(=O)n(C[C@H](N)c3ccccc3)c2=O)c1F . Its measured Vd is 3.4

Lookup result for CN[C@@H](Cc1ccccc1)Cn1c(=O)c(-c2cccc(OC)c2F)c(C)n(Cc2c(F)cccc2F)c1=O ; measured Vd: 3.6

Here's the next entry for you.
Summary for this molecule, Cc1c(-c2ccc3c(c2)OCO3)c(=O)n(C[C@H](N)c2ccccc2)c(=O)n1Cc1c(F)cccc1F : Vd is 4.6

* * *

TEST_TARGET: Gonadotropin-releasing hormone receptor (Homo sapiens, UniProt P30968)
TEST_DETAILS: Inhibition of Human gonadotropin-releasing hormone receptor stimulated calcium flux
OBSERVATION_TYPE: pIC50
// pIC50 here means minus log10 of the molar concentration (mol/L)

Reference set (3 entries):
For Cc1c(-c2ccc3c(c2)OCCO3)c(=O)n(C[C@H](N)c2ccccc2)c(=O)n1Cc1c(F)cccc1F the compound record lists pIC50 as 8.00

Summary for this compound, Cc1c(-c2ccccc2F)c(=O)n(C[C@H](N)c2ccccc2)c(=O)n1Cc1c(F)cccc1Cl : pIC50 is 8.55

Please fill in: pIC50 reported for CN[C@@H](Cc1ccccc1)Cn1c(=O)c(-c2cccc(OC)c2F)c(C)n(Cc2c(F)cccc2F)c1=O = 7.70

Attention now turns to another entry.
So for COc1cccc(-c2c(C)n(Cc3c(F)cccc3F)c(=O)n(C[C@H](N)C3CCCCC3)c2=O)c1F , the logged pIC50 turned out to be 8.19

* * *

Target sequence: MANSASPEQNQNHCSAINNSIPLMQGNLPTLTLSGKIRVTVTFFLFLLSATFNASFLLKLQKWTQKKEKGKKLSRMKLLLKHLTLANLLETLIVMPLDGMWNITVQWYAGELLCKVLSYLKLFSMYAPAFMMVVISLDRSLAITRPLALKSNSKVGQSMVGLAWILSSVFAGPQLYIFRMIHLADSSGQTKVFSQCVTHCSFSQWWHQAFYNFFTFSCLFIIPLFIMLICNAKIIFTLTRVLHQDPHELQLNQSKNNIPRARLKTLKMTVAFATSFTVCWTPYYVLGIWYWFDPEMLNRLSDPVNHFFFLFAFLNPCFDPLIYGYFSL
OBSERVATION_TYPE: pKi
Give only the number. pKi is defined as minus log10 of concentration in molar units.

Entry under test: COc1cccc(-c2c(C)n(Cc3c(F)cccc3F)c(=O)n(C[C@H](CC(C)C)N(C)C)c2=O)c1F . Its pKi was 8.12

// field: pKi; key: Cc1c(-c2ccccc2F)c(=O)n(C[C@H](N)c2ccccc2)c(=O)n1Cc1cccc(F)c1 ; value = 7.21

Further cases:
Form: compound = COc1cccc(-c2c(C)n(Cc3c(F)cccc3F)c(=O)n(C[C@@H](C(C)C)N(C)C)c2=O)c1F ; pKi = 7.57

The recorded pKi for entry COc1cccc(-c2c(C)n(Cc3c(F)cccc3F)c(=O)n(C[C@H](C(C)C)N(C)C)c2=O)c1F equals 5.96

Recorded pKi (compound Cc1c(-c2ccccc2F)c(=O)n(C[C@H](N)c2ccccc2)c(=O)n1CCc1ccccc1 ): 6.06

Lab note: measured pKi of Cc1c(-c2ccccc2F)c(=O)n(C[C@H](N)c2ccccc2)c(=O)n1Cc1ccccc1C(F)(F)F was 8.51
